# Assay System: Spike-RBD RBD (Severe acute respiratory syndrome …, UniProt P0DTC2)
# Assay Info: ELISA
Quantity Measured: Kd

State the recorded Kd for this entry: Platelet Factor 4 (protein) SQVRPRHITSLEVIKAGPHCPTAQLIATLKNGRKICLDLQAPLYKKIIKKLLES ~180 nM

Where do these numbers come from? They come from paper PMC8395316.
